assayed-system: human HER2 (23-652) (Homo sapiens, UniProt P04626)
assay-name: TR-FRET competition assay for peptide potency, human HER2
Format: binding
Parameters: towards human HER2 (23-652) and mouse HER2 (23-653); made in house; host or cells: mammalian cells
test-settings: huHER2 TR-FRET IC50, TR-FRET competition with Cy5 labeled peptide probe, 0.1 nM human HER2, 24 h incubation
Counter-ions that a name gives are not always drawn. Positions of bridges follow the written chain, without caps; N, C: chain ends. Non-standard residues stand in square brackets, D forms with d. Residues, ends and D or L forms follow the SMILES beside them. Trp(5-OH) = N[C@@H](Cc1c[nH]c2ccc(O)cc12)C(=O)O; NMePhe(4-F) = CN[C@@H](Cc1ccc(F)cc1)C(=O)O; NMehPhe = CN[C@@H](CCc1ccccc1)C(=O)O; Aad = N[C@@H](CCCC(=O)O)C(=O)O; Gly(cPr) = N[C@H](C(=O)O)C1CC1; NMeDap = CN[C@@H](CN)C(=O)O; NMeS = CN[C@@H](CO)C(=O)O
reported-metric: pIC50
# log scale: pIC50 equals minus log10 of the concentration in mol/L

What the record says about CN1C(=O)[C@H](CO)NC(=O)[C@H](Cc2ccc(O)cc2)NC(=O)[C@@H](N)CCCC(=O)NC[C@@H](C(=O)N(C)[C@@H](Cc2ccc(F)cc2)C(N)=O)N(C)C(=O)[C@H](C2CC2)NC(=O)[C@H](Cc2c[nH]c3ccccc23)NC(=O)[C@H](Cc2c[nH]c3ccc(O)cc23)NC(=O)[C@H](CO)N(C)C(=O)[C@@H]1CCc1ccccc1 [Example A36, TFA salt] (H-[Aad]YS[NMehPhe][NMeS][Trp(5-OH)]W[Gly(cPr)][NMeDap][NMePhe(4-F)]-NH2; lactam 1-9) : pIC50 is 7.28

API: the following record is the query input.
What the record says about CN1C(=O)[C@H](Cc2ccc(O)cc2)NC(=O)[C@@H](N)CCC(=O)NC[C@@H](C(=O)N(C)[C@@H](Cc2ccc(F)cc2)C(N)=O)N(C)C(=O)[C@H](C2CC2)NC(=O)[C@H](Cc2c[nH]c3ccccc23)NC(=O)[C@H](Cc2c[nH]c3ccc(O)cc23)NC(=O)[C@H](CO)N(C)C(=O)[C@H](CCc2ccccc2)N(C)C(=O)[C@@H]1CO [Example A38, TFA salt] (H-EY[NMeS][NMehPhe][NMeS][Trp(5-OH)]W[Gly(cPr)][NMeDap][NMePhe(4-F)]-NH2; lactam 1-9) : pIC50 is 7.03

###

assayed-system: human HER2 (23-652) (Homo sapiens)
assay-name: TR-FRET competition assay for peptide potency, human HER2
Format: binding
Set-up: towards human HER2 (23-652) and mouse HER2 (23-653); made in house; host or cells: mammalian cells
test-settings: read-out: huHER2 TR-FRET IC50
Positions of bridges follow the written chain, without caps; N, C: chain ends. Non-standard residues stand in square brackets, D forms with d. Residues, ends and D or L forms follow the SMILES beside them. Trp(5-OH) = N[C@@H](Cc1c[nH]c2ccc(O)cc12)C(=O)O; NMePhe(4-F) = CN[C@@H](Cc1ccc(F)cc1)C(=O)O; NMehPhe = CN[C@@H](CCc1ccccc1)C(=O)O; Aad = N[C@@H](CCCC(=O)O)C(=O)O; Gly(cPr) = N[C@H](C(=O)O)C1CC1; NMeDap = CN[C@@H](CN)C(=O)O; NMeS = CN[C@@H](CO)C(=O)O
Overview of recorded IC50 for various molecules
Kindly answer with a numeric value in nM, unit omitted.

What the record says about CC(=O)N[C@H]1CCC(=O)NCC[C@@H](C(=O)N(C)[C@@H](Cc2ccc(F)cc2)C(N)=O)N(C)C(=O)[C@H](C2CC2)NC(=O)[C@H](Cc2c[nH]c3ccccc23)NC(=O)[C@H](Cc2c[nH]c3ccc(O)cc23)NC(=O)[C@H](CO)N(C)C(=O)[C@H](CCc2ccccc2)N(C)C(=O)[C@H](CO)NC(=O)[C@H](Cc2ccc(O)cc2)NC1=O [Example A10] : IC50 is 536

New cases:
What the record says about CC(=O)N[C@H]1CCC(=O)NC[C@@H](C(=O)N(C)[C@@H](Cc2ccc(F)cc2)C(N)=O)N(C)C(=O)[C@H](C2CC2)NC(=O)[C@H](Cc2c[nH]c3ccccc23)NC(=O)[C@H](Cc2c[nH]c3ccc(O)cc23)NC(=O)[C@H](CO)N(C)C(=O)[C@H](CCc2ccccc2)N(C)C(=O)[C@H](CCCC(=O)O)NC(=O)[C@H](Cc2ccc(O)cc2)NC1=O [Example A27] (Ac-EY[Aad][NMehPhe][NMeS][Trp(5-OH)]W[Gly(cPr)][NMeDap][NMePhe(4-F)]-NH2; lactam 1-9) : IC50 is 391

###

assayed-system: mouse HER2 (23-653) (Mus musculus, UniProt P70424)
assay-name: Surface plasmon resonance (SPR) for assessment of peptide affinity, mouse HER2
Assay type: binding
Design: mouse HER2 (23-653) using a Cy5 labeled peptide as a probe; made in house
test-settings: SPR, mouse HER2 extracellular domain, 25° C., 1:1 binding model; read-out: moHER2-SPR-ONC KD
Sequence (P70424 23-653): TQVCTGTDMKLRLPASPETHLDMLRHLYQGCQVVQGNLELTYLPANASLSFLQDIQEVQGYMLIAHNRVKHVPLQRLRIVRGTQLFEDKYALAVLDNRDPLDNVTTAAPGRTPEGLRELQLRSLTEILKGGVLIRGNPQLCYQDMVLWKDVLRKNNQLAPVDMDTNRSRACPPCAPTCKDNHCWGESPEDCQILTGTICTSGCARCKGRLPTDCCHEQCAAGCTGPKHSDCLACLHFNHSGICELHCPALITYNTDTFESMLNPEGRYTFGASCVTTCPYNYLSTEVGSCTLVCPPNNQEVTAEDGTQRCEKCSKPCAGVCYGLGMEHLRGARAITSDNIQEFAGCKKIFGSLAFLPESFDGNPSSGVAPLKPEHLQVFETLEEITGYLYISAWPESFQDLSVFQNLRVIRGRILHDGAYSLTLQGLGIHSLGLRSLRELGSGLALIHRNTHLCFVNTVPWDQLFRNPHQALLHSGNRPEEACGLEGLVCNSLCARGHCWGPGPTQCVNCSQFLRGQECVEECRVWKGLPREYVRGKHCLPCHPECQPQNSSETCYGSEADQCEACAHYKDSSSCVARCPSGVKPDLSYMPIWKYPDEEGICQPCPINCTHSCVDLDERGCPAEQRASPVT
reported-metric: Kd

What the record says about CC(=O)NCCCC[C@H]1C(=O)N[C@@H](Cc2c[nH]c3ccc(O)cc23)C(=O)N[C@@H](Cc2c[nH]c3ccccc23)C(=O)N[C@@H](C2CC2)C(=O)N(C)[C@H](C(=O)N(C)[C@@H](Cc2ccc(F)cc2)C(=O)N[C@@H](CCCCNC(=O)CN2CCN(CC(=O)O)CCN(CC(=O)O)CCN(CC(=O)O)CC2)C(N)=O)CNC(=O)CCC[C@H](NC(C)=O)C(=O)N[C@H](Cc2ccc(O)cc2)C(=O)N[C@H](CO)C(=O)N(C)[C@@H](CCc2ccccc2)C(=O)N1C [Example B4] : Kd is > 6 µM

###

assayed-system: mouse HER2 (23-653) (Mus musculus, UniProt P70424)
assay-name: TR-FRET competition assay for peptide potency, mouse HER2
Format: binding
Parameters: mouse HER2 (23-653) using a Cy5 labeled peptide as a probe; made in house; host or cells: mammalian cells
test-settings: TR-FRET competition with Cy5 labeled peptide probe, 0.1 nM mouse HER2, 24 h incubation; read-out: moHER2 TR-FRET IC50
Where a name gives a salt, the structure may show the parent alone. Positions of bridges follow the written chain, without caps; N, C: chain ends. Non-standard residues stand in square brackets, D forms with d. Residues, ends and D or L forms follow the SMILES beside them. Trp(5-OH) = N[C@@H](Cc1c[nH]c2ccc(O)cc12)C(=O)O; NMePhe(4-F) = CN[C@@H](Cc1ccc(F)cc1)C(=O)O; NMehPhe = CN[C@@H](CCc1ccccc1)C(=O)O; NMeAoc(2) = CCCCCC[C@H](NC)C(=O)O; NMeAhp(2) = CCCCC[C@H](NC)C(=O)O; Aad = N[C@@H](CCCC(=O)O)C(=O)O; Gly(cPr) = N[C@H](C(=O)O)C1CC1; NMeK = CN[C@@H](CCCCN)C(=O)O; NMeDap = CN[C@@H](CN)C(=O)O
Overview of recorded IC50 for various compounds
Kindly answer with a numeric value in nM, unit omitted.

What the record says about COCCOCCOCCOCCOCCOCCOCCOCCOCCOCCOCCOCCC(=O)N[C@H]1CCCC(=O)NC[C@@H](C(=O)N(C)[C@@H](Cc2ccc(F)cc2)C(=O)N[C@@H](CCCCN)C(N)=O)N(C)C(=O)[C@H](C2CC2)NC(=O)[C@H](Cc2c[nH]c3ccccc23)NC(=O)[C@H](Cc2c[nH]c3ccc(O)cc23)NC(=O)[C@H](CCCCNC(C)=O)N(C)C(=O)[C@H](CCc2ccccc2)N(C)C(=O)[C@H](CO)NC(=O)[C@H](Cc2ccc(O)cc2)NC1=O [Example A43, TFA salt] : IC50 is 0.2

What the record says about CCCCC[C@H]1C(=O)N(C)[C@@H](CCCCNC(C)=O)C(=O)N[C@@H](Cc2c[nH]c3ccc(O)cc23)C(=O)N[C@@H](Cc2c[nH]c3ccccc23)C(=O)N[C@@H](C2CC2)C(=O)N(C)[C@H](C(=O)N(C)[C@@H](Cc2ccc(F)cc2)C(N)=O)CNC(=O)CCC[C@H](NC(C)=O)C(=O)N[C@@H](Cc2ccc(O)cc2)C(=O)N[C@@H](CO)C(=O)N1C [Example A14] (Ac-[Aad]YS[NMeAhp(2)][NMeK](Ac)[Trp(5-OH)]W[Gly(cPr)][NMeDap][NMePhe(4-F)]-NH2; lactam 1-9) : IC50 is 3.7

What the record says about CC(=O)N[C@H]1CCCC(=O)NC[C@@H](C(=O)N(C)[C@@H](Cc2ccc(F)cc2)C(=O)N[C@@H](CCCCNC(=O)CN2CCN(CC(=O)O)CCN(CC(=O)O)CCN(CC(=O)O)CC2)C(N)=O)N(C)C(=O)[C@H]([C@H](C)O)NC(=O)[C@H](Cc2c[nH]c3ccccc23)NC(=O)[C@H](Cc2c[nH]c3ccc(O)cc23)NC(=O)[C@H](CCCCNC(=O)CO)N(C)C(=O)[C@H](CCc2ccccc2)N(C)C(=O)[C@H](CO)NC(=O)[C@H](Cc2ccc(O)cc2)NC1=O : IC50 is 1.1

API: the following record is the query input.
What the record says about CCCCCC[C@@H](C(N)=O)N(C)C(=O)[C@@H]1CNC(=O)CCC[C@H](NC(C)=O)C(=O)N[C@@H](Cc2ccc(O)cc2)C(=O)N[C@@H](CO)C(=O)N(C)[C@@H](CCc2ccccc2)C(=O)N(C)[C@@H](CCCCNC(C)=O)C(=O)N[C@@H](Cc2c[nH]c3ccc(O)cc23)C(=O)N[C@@H](Cc2c[nH]c3ccccc23)C(=O)N[C@@H](C2CC2)C(=O)N1C [Example A13] (Ac-[Aad]YS[NMehPhe][NMeK](Ac)[Trp(5-OH)]W[Gly(cPr)][NMeDap][NMeAoc(2)]-NH2; lactam 1-9) : IC50 is 107
